molecular target: Progesterone receptor (Homo sapiens); assay: qHTS assay to identify small molecule agonists of the progesterone receptor (PR) signaling pathway (AID 1346784); details: PR-UAS-bla HEK293T, beta-lactamase FRET ratio, 16 h; series mostly up to 92.4 µM; also: nearly all actives have a fitted effect of over 30% in size
Inconclusive results are not listed. Active and inactive are the calls of the source. Calls follow the shape of the full dose curve.

| compound | activation |
| --- | --- |
| CN(C/C=C/c1ccccc1)Cc1cccc2ccccc12 | inactive |
| CCOC=C(C(=O)OCC)C(=O)OCC | inactive |
| CCC(O)CO (stereo not drawn) | inactive |
| CC(C=O)c1ccccc1 (stereo not drawn) | inactive |
| CC(C)c1ccc2sc3ccccc3c(=O)c2c1 | inactive |
| O=C1c2ccccc2C(=O)c2c(Cl)cccc21 | inactive |
| C=CC(C)(C)O | inactive |
| Oc1cccc2c(O)cccc12 | inactive |

###

experiment: qHTS assay to identify small molecule agonists of the AP-1 signaling pathway - cell viability counter screen (AID 1159525); details: ME-180 (cervical carcinoma) AP-1-bla cells viability, ATP luminescence, 5 h; series mostly up to 76.8 µM; also: nearly all actives have a fitted effect of over 55% in size; also: potency is read from the fitted curve at half-maximal effect
Results filed as inconclusive are left out. Activity calls are given as the source filed them. The call rests on the fitted dose curve.

| molecule | Potency |
| --- | --- |
| Cc1cc(F)ccc1-c1cc(N2CC[C@@H](O)[C@H]2CO)ncc1N(C)C(=O)C(C)(C)c1cc(C(F)(F)F)cc(C(F)(F)F)c1 | 17.1 µM (active) |
| CC(=O)CC(N)=O | inactive |
| CC(C)(c1ccc(Oc2ccc(N)cc2)cc1)c1ccc(Oc2ccc(N)cc2)cc1 | inactive |
| C=CCc1cc(S(=O)(=O)c2ccc(O)c(CC=C)c2)ccc1O | inactive |
| Cc1c(Cl)c(=O)oc2cc(O)ccc12 | inactive |
| CC1CCC(C(C)(C)O)CC1 (configuration not stated) | inactive |
| COCCC(=O)OC | inactive |
| C=CC(=O)O[C@H]1C[C@@H]2CC[C@@]1(C)C2(C)C | inactive |
| NCc1ccco1 | inactive |
| CCc1cccc(C)c1N(C(=O)CS(=O)(=O)O)C(C)COC (configuration not stated) | inactive |
| Cc1cccc2c1ccc1ccccc12 | inactive |
| CCOC(=O)C1=NN(c2ccc(Cl)cc2Cl)C(C)(C(=O)OCC)C1 (configuration not stated) | inactive |
| CCC(=O)OC/C=C(\C)CCC=C(C)C | inactive |
| O=[N+]([O-])c1ccc(CO)cc1 | inactive |
| Nc1ccc2c(S(=O)(=O)O)cccc2c1S(=O)(=O)O | inactive |
| COC(=O)c1ccc([N+](=O)[O-])cc1 | inactive |
| CC(=O)[C@]1(O)Cc2c(O)c3c(c(O)c2[C@@H](O[C@H]2C[C@H](N)[C@H](O)[C@H](C)O2)C1)C(=O)c1ccccc1C3=O | inactive |
| CC/C=C(\C)C=O | inactive |
| Cc1c[nH]c(=O)[nH]c1=O | inactive |
| CC(C)C(=O)C(C)C | inactive |
| CCN(CCC#N)c1ccc(N=Nc2ccc([N+](=O)[O-])cc2)cc1 | inactive |
| C=C1C(CCl)(CCl)C2(Cl)C(Cl)C(Cl)C1(Cl)C2(Cl)Cl (configuration not stated) | 43.1 µM (active) |
| CCCCCCCCOC(=O)c1cc(O)c(O)c(O)c1 | 54.9 µM (active) |
| O[Si](c1ccccc1)(c1ccccc1)c1ccccc1 | inactive |
| c1ccc2occc2c1 | inactive |
| CC(C)=CCC[C@H](C)CC=O | inactive |
| Cn1ccnc1 | inactive |
